Each entry below lists one item and its recorded residual activity value.
Tested system: CLK1 (human) (UniProt P49759)
Sequence (P49759 whole entry, looked up): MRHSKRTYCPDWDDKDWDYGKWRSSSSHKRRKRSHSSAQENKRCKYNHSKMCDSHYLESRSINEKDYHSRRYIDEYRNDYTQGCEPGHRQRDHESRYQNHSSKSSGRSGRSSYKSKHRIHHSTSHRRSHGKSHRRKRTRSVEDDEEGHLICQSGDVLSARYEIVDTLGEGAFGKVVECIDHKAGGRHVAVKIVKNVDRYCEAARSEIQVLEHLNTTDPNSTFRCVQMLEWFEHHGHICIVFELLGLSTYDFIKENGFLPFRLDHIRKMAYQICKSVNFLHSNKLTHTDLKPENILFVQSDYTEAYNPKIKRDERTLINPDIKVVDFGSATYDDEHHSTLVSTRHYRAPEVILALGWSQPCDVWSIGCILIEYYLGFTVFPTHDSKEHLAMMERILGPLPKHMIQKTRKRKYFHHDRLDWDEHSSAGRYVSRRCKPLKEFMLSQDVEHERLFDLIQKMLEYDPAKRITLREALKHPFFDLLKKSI
Test protocol: radiometric filter-binding kinase assay, Kinase HotSpot
Measurement setup: compound 0.5 µM; ATP 10 µM

{"columns": ["Compound structure string", "Reading unit", "residual activity"],
 "data": [
  ["O=C1NC(=O)c2c1c1c3ccccc3[nH]c1n1cncc21", "%", 84],
  ["CN(C)CCCn1cc(C2=C(c3c[nH]c4ccccc34)C(=O)NC2=O)c2ccccc21", "%", 60.3],
  ["CCCCc1c(-c2ccc(OC)cc2)[nH]c2nccnc12", "%", 102],
  ["COc1cc2ncnc(Nc3ccc(Oc4ccccc4)cc3)c2cc1OC", "%", 100],
  ["c1ccc2c(-c3ccncc3)c[nH]c2c1", "%", 105],
  ["COc1ccc(Cl)cc1NC(=O)Nc1cc(C)nc2ccccc12", "%", 97.6],
  ["Cc1cccc(-c2nc(C(C)(C)C)[nH]c2-c2ccc3c(c2)OCO3)n1", "%", 98],
  ["CS(=O)(=O)CCNCc1ccc(-c2ccc3ncnc(Nc4ccc(OCc5cccc(F)c5)c(Cl)c4)c3c2)o1", "%", 107]
]}
